B1: Azoarcus group I ribozyme (parent)
chain: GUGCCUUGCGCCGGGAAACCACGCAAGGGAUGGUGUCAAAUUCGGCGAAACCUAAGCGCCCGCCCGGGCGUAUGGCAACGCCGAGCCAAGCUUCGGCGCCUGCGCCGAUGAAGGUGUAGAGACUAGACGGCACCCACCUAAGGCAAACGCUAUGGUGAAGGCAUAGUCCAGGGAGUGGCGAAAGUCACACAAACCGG

- Variants of: B1
- Protocol text: reverse-splicing fitness (ratio to wild type); higher = more active; in vitro selection; Mg2+ level not given
Criterion: reverse-splicing fitness meeting or surpassing 0.009. Met: YES. Not met: NO.

C82A A111G A120G C150U C169U U176A ... YES
A111U A120U A145C C150G U176G ... NO
C82G A111U A120C A145G C150U U176A ... YES
A111G A120U C169U U176G ... NO

Quick check: does C82U A111C A145G C169G U176C have reverse-splicing fitness greater than or equal to 0.009?
YES

Quick check: does C82A A111C A120C A145C C150A C169U U176C have reverse-splicing fitness greater than or equal to 0.009?
YES

Quick check: does A145U C150G U176C have reverse-splicing fitness greater than or equal to 0.009?
YES

Quick check: does A111U A120C A145G C150U U176G have reverse-splicing fitness greater than or equal to 0.009?
YES

Quick check: does C82G A111G A145U C150G C169G U176G have reverse-splicing fitness greater than or equal to 0.009?
NO

Quick check: does C82G A111U A120U A145U C150A C169U U176C have reverse-splicing fitness greater than or equal to 0.009?
NO

Quick check: does C82A A111G A120G A145G C150G have reverse-splicing fitness greater than or equal to 0.009?
NO

Quick check: does C82G A111C A120U A145U C150U C169U U176A have reverse-splicing fitness greater than or equal to 0.009?
NO

Quick check: does C82A A111C A120G U176A have reverse-splicing fitness greater than or equal to 0.009?
YES

Quick check: does C82U A111G A145U C150G C169U U176A have reverse-splicing fitness greater than or equal to 0.009?
NO

Quick check: does C82G A111U A120C A145G U176C have reverse-splicing fitness greater than or equal to 0.009?
YES

Quick check: does C82U A111G A120C A145G C150U C169U U176C have reverse-splicing fitness greater than or equal to 0.009?
YES

Quick check: does A111U A120G A145C U176C have reverse-splicing fitness greater than or equal to 0.009?
YES

Quick check: does C82A A120C C150U U176C have reverse-splicing fitness greater than or equal to 0.009?
YES

Quick check: does C82G A111G C169U U176C have reverse-splicing fitness greater than or equal to 0.009?
YES

Quick check: does C82U A111U A120G A145G C150A C169A U176C have reverse-splicing fitness greater than or equal to 0.009?
YES
